target: Gag-Pol polyprotein [588-1127,Y768C]/[588-1147,Y768C] (Human immunodeficiency virus 1, UniProt P04585, Y768C); construct: 588-1127; 588-1147; assay: HIV-1 RT Assay
value.kind: pIC50
Just the number, please; pIC50 means minus log10 of the concentration in mol/L.

So what does the record say about pIC50 for CCn1c(C)c(C(C)(C)C)s/c1=N\S(=O)(=O)c1cccc([N+](=O)[O-])c1 ? 6.92

Query CC(C)c1s/c(=N\S(=O)(=O)c2cccc([N+](=O)[O-])c2)n(C)c1C#N next 6.19

Queued: CC(C)c1s/c(=N\S(=O)(=O)c2cccc([N+](=O)[O-])c2)n(C)c1Cl 6.89

Same for CC(C)c1s/c(=N\S(=O)(=O)c2cccc([N+](=O)[O-])c2)n(C)c1C(F)(F)F 6.59

Next entry: C=Cc1s/c(=N\S(=O)(=O)c2cccc([N+](=O)[O-])c2)n(C)c1C 5.02

CC(C)c1cn(C)/c(=N/S(=O)(=O)c2cccc([N+](=O)[O-])c2)s1 , same question. 6.15

----------
Give IC50 for every item shown.
biological target: Gag-Pol polyprotein [588-1027,K690N]/[588-1147,K690N] (Human immunodeficiency virus 1, UniProt P04585, K690N); construct: 588-1027; 588-1147; assay: HIV-1 RT Assay; details: pH 8.4; 37 °C

I have this molecule here, Cc1s/c(=N\S(=O)(=O)c2cccc([N+](=O)[O-])c2)n(C)c1C , and I need its recorded IC50. > 50 µM

Entry to check: Cc1c(C(C)C)s/c(=N\S(=O)(=O)c2cccc([N+](=O)[O-])c2)n1C 20 µM

Please answer likewise for CCc1s/c(=N\S(=O)(=O)c2cccc([N+](=O)[O-])c2)n(C)c1C 6.3 µM

Next record, please: Cc1cs/c(=N\S(=O)(=O)c2cccc([N+](=O)[O-])c2)n1C > 50 µM

Likewise for Cc1[nH]/c(=N/S(=O)(=O)c2cccc([N+](=O)[O-])c2)sc1C(C)(C)C ? 32 µM

Also check Cc1c(C(C)(C)C)s/c(=N\S(=O)(=O)c2cccc([N+](=O)[O-])c2)n1C [3-substituted thiazolidene deriv. 17a] 13 µM

----------
Please provide measured pIC50 for the entries that follow.
target: Gag-Pol polyprotein [588-1027,K690N]/[588-1147,K690N] (Human immunodeficiency virus 1, UniProt P04585, K690N); construct: 588-1027; 588-1147; assay: HIV-1 RT Assay
pIC50: −log10 of the molar value.

I would be grateful if you could share the reported pIC50 for CC(=O)c1sc(=NS(=O)(=O)c2cccc([N+](=O)[O-])c2)n(C)c1C . < 4.30

What about CC(C)c1s/c(=N\S(=O)(=O)c2cccc([N+](=O)[O-])c2)n(C)c1C#N ? < 4.30

Let us now turn to CC(C)c1s/c(=N\S(=O)(=O)c2cccc([N+](=O)[O-])c2)n(C)c1C(N)=O < 4.30

How about C=Cc1s/c(=N\S(=O)(=O)c2cccc([N+](=O)[O-])c2)n(C)c1C ? 5.21

Also need CCn1c(C)c(C(C)(C)C)s/c1=N\S(=O)(=O)c1cccc([N+](=O)[O-])c1 , thanks. < 4.30

What do we get for CC(C)c1s/c(=N\S(=O)(=O)c2cccc([N+](=O)[O-])c2)n(C)c1Cl ? 5.16

Queued: CC(C)c1cn(C)/c(=N/S(=O)(=O)c2cccc([N+](=O)[O-])c2)s1 < 4.30

Would you kindly repeat that for CC(C)Cc1c(C(C)C)s/c(=N\S(=O)(=O)c2cccc([N+](=O)[O-])c2)n1C ? < 4.30

Please answer likewise for CC(C)c1s/c(=N\S(=O)(=O)c2cccc([N+](=O)[O-])c2)n(C)c1C(F)(F)F 4.38

Param item: COC(=O)c1c(C(C)C)s/c(=N\S(=O)(=O)c2cccc([N+](=O)[O-])c2)n1C < 4.30

----------
molecular target: Gag-Pol polyprotein [588-1027]/[588-1147] (Human immunodeficiency virus 1); construct: 588-1027; 588-1147; experiment: HIV-1 RT Assay; settings: pH 8.4; 37 °C
Returns: string. Value is Condition met if measured IC50 is below 400 nM, and Condition not met if it is greater than or equal to it.

State whether 400 nM exceeds IC50 recorded for Cc1s/c(=N\S(=O)(=O)c2cccc([N+](=O)[O-])c2)n(C)c1C . Condition not met

Moving on to Cc1c(C(C)(C)C)s/c(=N\S(=O)(=O)c2cccc([N+](=O)[O-])c2)n1C [3-substituted thiazolidene deriv. 17a] Condition met

Next: Cc1cs/c(=N\S(=O)(=O)c2cccc([N+](=O)[O-])c2)n1C Condition not met

Thanks! And Cc1[nH]/c(=N/S(=O)(=O)c2cccc([N+](=O)[O-])c2)sc1C(C)(C)C ? Condition met

# iterate: CCc1s/c(=N\S(=O)(=O)c2cccc([N+](=O)[O-])c2)n(C)c1C Condition not met

How about Cc1c(C(C)C)s/c(=N\S(=O)(=O)c2cccc([N+](=O)[O-])c2)n1C ? Condition met

----------
Assignment: determine reported IC50 for the given compounds.
biological target: Gag-Pol polyprotein [588-1127,Y768C]/[588-1147,Y768C] (Human immunodeficiency virus 1, UniProt P04585, Y768C); construct: 588-1127; 588-1147; assay: HIV-1 RT Assay; settings: pH 8.4; 37 °C

Look at this compound and give its reported IC50. CCc1s/c(=N\S(=O)(=O)c2cccc([N+](=O)[O-])c2)n(C)c1C 470 nM

Now try Cc1c(C(C)(C)C)s/c(=N\S(=O)(=O)c2cccc([N+](=O)[O-])c2)n1C [3-substituted thiazolidene deriv. 17a] . 66 nM

And the next one, Cc1[nH]/c(=N/S(=O)(=O)c2cccc([N+](=O)[O-])c2)sc1C(C)(C)C ? 470 nM

Same again, this time with Cc1c(C(C)C)s/c(=N\S(=O)(=O)c2cccc([N+](=O)[O-])c2)n1C 71 nM

Now consider Cc1cs/c(=N\S(=O)(=O)c2cccc([N+](=O)[O-])c2)n1C . > 50000 nM

Note, next up: Cc1s/c(=N\S(=O)(=O)c2cccc([N+](=O)[O-])c2)n(C)c1C 33000 nM

----------
biological target: Gag-Pol polyprotein [588-1027]/[588-1147] (Human immunodeficiency virus 1, UniProt P04585); construct: 588-1027; 588-1147; assay: HIV-1 RT Assay
pIC50: −log10 of the molar value.
value.kind: pIC50

Recorded pIC50 of COC(=O)c1c(C(C)C)s/c(=N\S(=O)(=O)c2cccc([N+](=O)[O-])c2)n1C , please. < 4.30

Queued: CC(=O)c1sc(=NS(=O)(=O)c2cccc([N+](=O)[O-])c2)n(C)c1C < 4.30

Let us now turn to CC(C)Cc1c(C(C)C)s/c(=N\S(=O)(=O)c2cccc([N+](=O)[O-])c2)n1C < 4.30

----------
molecular target: Gag-Pol polyprotein [588-1127,Y768C]/[588-1147,Y768C] (Human immunodeficiency virus 1, UniProt P04585, Y768C); construct: 588-1127; 588-1147; assay: HIV-1 RT Assay
pIC50: −log10 of the molar value.
value.kind: pIC50

What value of pIC50 has been recorded for this entry: CC(=O)c1sc(=NS(=O)(=O)c2cccc([N+](=O)[O-])c2)n(C)c1C < 4.30

What do we get for CC(C)c1s/c(=N\S(=O)(=O)c2cccc([N+](=O)[O-])c2)n(C)c1C(N)=O ? < 4.60

Now the same for CC(C)Cc1c(C(C)C)s/c(=N\S(=O)(=O)c2cccc([N+](=O)[O-])c2)n1C < 4.60

Check COC(=O)c1c(C(C)C)s/c(=N\S(=O)(=O)c2cccc([N+](=O)[O-])c2)n1C too. < 4.60
